B1: PKD2L1 (parent)
chain: SGPEAARAGGWVSGEEFYMLTRRV

# Variants of: B1
# experiment_description: protein stability index of a GFP-peptide fusion (GPS, HEK-293T) (PSI 1-6); higher = more stable;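 also: lentivirally expressed fusions sorted by FACS into six bins by GFP to DsRed ratio, PSI derived from sequencing read proportions per bin multiplied by bin number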
# measurement_context: c terminus: a fixed tail appended
Recorded protein stability index by entry
Form: value (number only, do not type unit).

Exam item: // fetch protein stability index given entry "R23V"
Marked response: 2.16

Exam item: // fetch protein stability index given entry "P3M"
Marked response: 2.2
